molecular target: human CD33 G304A (human, UniProt P20138 18-364); experiment: alanine scan, flow cytometry, HEK293-T;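 further: antibody binding to each alanine-substituted CD33 mutant expressed transiently in HEK293-T, read as fluorescence minus background, mean of duplicates, relative to wild-type CD33 set as 100%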
Sequence (P20138 18-364 G304A limits assumed): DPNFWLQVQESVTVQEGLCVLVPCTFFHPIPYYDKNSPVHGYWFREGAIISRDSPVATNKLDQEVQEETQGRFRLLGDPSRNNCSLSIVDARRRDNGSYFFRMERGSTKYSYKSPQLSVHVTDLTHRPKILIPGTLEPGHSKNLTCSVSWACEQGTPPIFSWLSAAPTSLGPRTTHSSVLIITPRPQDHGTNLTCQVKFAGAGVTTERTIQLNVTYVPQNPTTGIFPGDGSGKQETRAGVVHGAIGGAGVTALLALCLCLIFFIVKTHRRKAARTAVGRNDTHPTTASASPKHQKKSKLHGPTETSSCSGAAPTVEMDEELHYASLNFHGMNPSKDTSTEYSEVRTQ
observable: Mean % WT Binding (% WT binding)
Answers are plain numbers, in % WT binding.

Solved entries:
- Refmab #3 (antibody, V domains shown, The alanine scan used IgG or Fab) VH: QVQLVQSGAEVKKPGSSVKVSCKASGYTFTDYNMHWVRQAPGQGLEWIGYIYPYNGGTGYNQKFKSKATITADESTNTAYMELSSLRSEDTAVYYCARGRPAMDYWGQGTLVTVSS VL: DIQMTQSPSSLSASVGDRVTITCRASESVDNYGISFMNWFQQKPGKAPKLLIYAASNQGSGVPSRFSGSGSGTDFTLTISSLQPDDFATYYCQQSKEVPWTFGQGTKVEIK: 121
- Refmab #1 (antibody, V domains shown, The alanine scan used IgG or Fab; also called hP67.6) VH: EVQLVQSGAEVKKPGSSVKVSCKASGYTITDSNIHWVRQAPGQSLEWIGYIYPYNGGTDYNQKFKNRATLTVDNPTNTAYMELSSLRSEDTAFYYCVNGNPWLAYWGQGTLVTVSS VL: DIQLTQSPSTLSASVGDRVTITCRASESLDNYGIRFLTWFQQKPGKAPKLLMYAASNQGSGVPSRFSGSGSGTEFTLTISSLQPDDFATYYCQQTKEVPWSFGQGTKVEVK: 104
- Refmab #2 (antibody, V domains shown, The alanine scan used IgG or Fab) VH: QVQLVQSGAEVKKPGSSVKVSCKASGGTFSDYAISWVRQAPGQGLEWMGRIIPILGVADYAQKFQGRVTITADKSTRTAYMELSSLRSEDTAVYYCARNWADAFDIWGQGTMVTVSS VL: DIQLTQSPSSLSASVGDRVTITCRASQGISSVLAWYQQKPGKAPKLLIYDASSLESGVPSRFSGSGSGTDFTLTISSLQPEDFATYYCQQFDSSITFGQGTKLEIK: 111

Task: What Mean % WT Binding value was documented for this binder, Refmab #4 (antibody, V domains shown, The alanine scan used IgG or Fab) VH: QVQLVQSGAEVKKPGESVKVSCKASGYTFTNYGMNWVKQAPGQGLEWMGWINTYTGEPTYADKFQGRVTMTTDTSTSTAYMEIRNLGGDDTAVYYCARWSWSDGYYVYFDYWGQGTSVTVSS VL: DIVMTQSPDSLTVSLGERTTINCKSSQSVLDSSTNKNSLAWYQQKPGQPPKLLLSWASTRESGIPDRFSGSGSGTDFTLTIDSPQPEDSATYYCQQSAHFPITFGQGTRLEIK ?
Result: 95
